# methodSummary: NCI Yeast Anticancer Drug Screen. Data for the cln2 rad14 strain (AID 165);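 further: 0% = growth equal to vehicle treated cultures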
# assayContext: S. cerevisiae cln2 rad14 strain, at 50.0 µM, active compounds read high
The panel holds about 79,000 compounds, 15% with a hit somewhere; the sample as a whole holds those more often.
measuredQuantity: growth inhibition (%)
Answer with a number only, understood to be in %.

Worked examples follow.
O=[N+]([O-])c1cccc2nccc(NCCCO)c12    57.9
OC(COc1cccc2ccccc12)CN1CCOCC1 (stereo not given)    73.5
O=C(NNc1ccnc2cc(Cl)ccc12)/C(=C\c1ccccc1Cl)NC(=O)c1ccccc1    55.4
CC(C)/C(Cl)=N\OC(=O)Nc1ccccc1F    35.1
CC(=O)Oc1ccc2c(c1)Cc1cc(N=C3C=CC(=O)O3)ccc1-2    98.8

Kindly review the next compound as well.
### Prompt What measured growth inhibition goes with COc1cc(C2SCC(=O)N2c2nnc(C(F)(F)F)s2)cc(OC)c1OC (stereo not given) ?
### Response -12.5

###

# methodSummary: NCI Yeast Anticancer Drug Screen. Data for the CLN2oe strain (AID 163);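 further: 0% = growth of vehicle-only control cultures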
# assayContext: S. cerevisiae CLN2oe strain, at 11.0 µM, active compounds read high
The panel holds about 79,000 compounds, 15% with a hit somewhere; the sample as a whole holds those more often.
measuredQuantity: growth inhibition (%)
Give the value, in units of %, as a plain number.

O=[N+]([O-])c1cc(CCl)ccc1CCl    48

### Prompt growth inhibition for C[Si](C)(C)CNC(=O)OCc1ccccc1 ?
### Response 7

### Prompt # lookup: growth inhibition of CC1(C)C(=O)OC(n2cc(F)c(=O)[nH]c2=O)C1=O (centres undefined)
### Response -1

### Prompt Looking for the measured growth inhibition of Oc1ccc(NCn2c(=S)sc3ccccc32)cc1 , can you help?
### Response -32

###

# methodSummary: NCI Yeast Anticancer Drug Screen. Data for the mec2-1 strain (AID 157)
# assayContext: S. cerevisiae mec2-1 strain, at 3.7 µM, active compounds read high
The panel holds about 79,000 compounds, 15% with a hit somewhere; the sample as a whole holds those more often.
measuredQuantity: growth inhibition (%)
Number in %, nothing else.

Would you please look over these solved cases?
Cc1[nH]c2ccccc2c1C(c1ccc(N)cc1)c1c(C)[nH]c2ccccc12    -1
Cc1ccc2ccc3cccc4ccc1c2c34    0
O=C1CSC(/C=C/c2ccccc2)N1c1ccc(-c2ccc(-n3c(-c4ccccc4)nc4ccccc4c3=O)cc2)cc1 (stereo not drawn)    0
C#CCCCc1ccccc1    -12
CC(=O)Nc1ccc(SC(C)=O)cc1    -45
OC(COc1cccc2ccccc12)CN1CCOCC1 (stereo not drawn)    17
O=C(O)c1ccccc1-c1ccccc1C(=O)Nc1ccc2c(c1)Cc1ccccc1-2    14
CN(Cc1cnc2nc(N)nc(N)c2n1)c1ccc(C(=O)N[C@@H](CCC(=O)O)C(=O)O)cc1    2

### Prompt Requested field: growth inhibition. Item: NC1=NS(=O)(=O)N=C(N)C1=Cc1ccc([N+](=O)[O-])o1
### Response -25

### Prompt Fill blank: measured growth inhibition of the compound Cn1c(=O)c(-c2ccccc2)c(N=[N+]=[N-])c2ccccc21 is ____.
### Response -9

###

Recorded growth inhibition for the following compounds
# methodSummary: NCI Yeast Anticancer Drug Screen. Data for the wt1 strain (AID 149);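 further: 0% = growth of vehicle-treated wt1 cultures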
# assayContext: S. cerevisiae wt1 strain (SPY 50644) growth inhibition; at 3.7 µM; active compounds read high
This is part of a sample that, as a whole, favours compounds with a hit. Of some 79,000 tested, about 15% had one in any assay.
Record the value in %, omitting the unit from your answer.

S=C(N/N=C/c1ccccn1)Nc1ccc(Cl)cc1    -5
c1ccc2c(c1)-c1nc3ccccc3cc1C2N1CCOCC1 (stereo not given)    2
CCCCOC(=O)N[C@H]1CCc2cc(OC)c(OC)c(OC)c2-c2ccc(SC)c(=O)cc21    -3

### Prompt Query: growth inhibition; subject: COc1ccc(/C(C)=N/OC(=O)c2c(-c3ccccc3Cl)noc2C)cc1CN1CCOCC1
### Response -10

### Prompt Using the record for COc1cc(CC2CC(c3ccc4c(c3)OCO4)OC2=O)cc(OC)c1OC (stereo not given) , report its growth inhibition.
### Response -3

### Prompt What does the record list as growth inhibition for Cc1ccc(-n2cc(-c3ccc(Cl)cc3)c(C#N)c2N)cc1 ?
### Response -2

Entry source: PubChem BioAssay (NCI)
